Test system: NCI-H23 lung
assay details: NCI tumour cell line growth inhibition, 48 h; in the data active means GI50 below about 0.43 µM; inactive means the rest
Please state which outcome applies, choosing from YES = active, NO = inactive

[
  {
    "compound": "COC(=O)c1cc2c(s1)-c1nccc3c1c(nc1ccccc13)C2=O",
    "group label": "NO"
  },
  {
    "compound": "C=CCc1ccc(O)c(-c2ccc(O)c(CC=C)c2)c1",
    "group label": "NO"
  },
  {
    "compound": "O=C1c2cc3c(cc2-c2c1c1cc(Cl)c(Cl)cc1c(=O)n2C[C@H](O)CO)OCO3",
    "group label": "YES"
  }
]

Now for a further molecule.
Just curious, what result did `C/C(=N\NC(=S)N1CCCCCC1)c1ccccn1` get here?
YES

---

Measured TGI, listed per entry for reference.
Test system: CAKI-1 renal
assay details: NCI tumour cell line growth inhibition, 48 h

[
  {
    "compound": "CC1CCN(C(=O)OCc2nc3nc(Cl)nc(N4CCOCC4)c3[nH]2)CC1",
    "subject of test": "CAKI-1 renal",
    "TGI": "2.27 µM"
  },
  {
    "compound": "COC(=O)c1nsc(OC)c1Cl",
    "subject of test": "CAKI-1 renal",
    "TGI": "> 100 µM"
  },
  {
    "compound": "COc1ccc(/C=C2\\c3cc(OC)c(OC)cc3CCN2C(=O)c2ccccc2)cc1OC",
    "subject of test": "CAKI-1 renal",
    "TGI": "> 100 µM"
  },
  {
    "compound": "COc1ccc(C2=C(c3ccc(OC)cc3)C(=O)N3CCCC3C2)cc1 (configuration not stated)",
    "subject of test": "CAKI-1 renal",
    "TGI": "> 100 µM"
  },
  {
    "compound": "Nc1c(C(=O)c2ccccc2)cnn1-c1ccc(F)cc1",
    "subject of test": "CAKI-1 renal",
    "TGI": "> 25 µM"
  }
]

Please tell me: TGI of `CCOC(=O)c1c2c(n(Cc3ccccc3)c1C)C(=O)C(=O)c1ccccc1-2` , system CAKI-1 renal?
0.984 µM

Please tell me: TGI of `CCN(CC)CCSc1c2ccccc2nc2c(OC)ccc(OC)c12` , system CAKI-1 renal?
> 22.2 µM

Please tell me: TGI of `N#Cc1c(-c2ccc(Cl)cc2)c(C#N)c(=O)n(NS(=O)(=O)c2ccccc2)c1O` , system CAKI-1 renal?
48 µM

Please tell me: TGI of `O=C(CNS(=O)(=O)Cc1ccccc1)NNc1ccccc1` , system CAKI-1 renal?
> 100 µM

Please tell me: TGI of `O=C(O)c1ccc(C(=O)O)c2c(C(=O)O)ccc(C(=O)O)c12` , system CAKI-1 renal?
> 100 µM

Please tell me: TGI of `COc1ccc(-c2nnc(N3CCN(C(=O)CN4CCN(c5ccccc5)CC4)CC3)nc2-c2ccc(OC)cc2)cc1` , system CAKI-1 renal?
> 100 µM

---

Tested on: HOP-92 NSCLC
assay details: NCI tumour cell line growth inhibition, 48 h
measure name: TGI (µM)
Express the result in µM but write the number alone.

[
  {
    "compound": "C=C1C(=O)OC2CC(C)C(C(O)CC(C)O)=CCC12 (stereo not drawn)",
    "subject of test": "HOP-92 NSCLC",
    "unit info": "µM",
    "TGI": 27.8
  }
]

API: the following record is the query input.
Please tell me: TGI of `CN1CC[C@@H](c2c(O)cc(O)c3c(=O)cc(-c4ccc(C(F)(F)F)cc4Cl)oc23)[C@@H]1CO` , system HOP-92 NSCLC?
40.3

---

Measured TGI, listed per entry for reference.
Tested on: SNB-19 CNS
assay details: NCI tumour cell line growth inhibition, 48 h

[
  {
    "compound": "CS/C(=C(\\S)c1ccccc1)c1ccccc1",
    "TGI": "> 100 µM"
  },
  {
    "compound": "CC1OC(OC2C(OC(=O)[C@]34CCC(C)(C)C[C@H]3C3=CC[C@@H]5[C@@]6(C)CC[C@H](OC7OC(CO)C(O)C(O)C7OC7OC(CO)C(O)C(O)C7O)C(C)(C)[C@@H]6CC[C@@]5(C)[C@]3(C)CC4)OCC(O)C2O)C(O)C(OC2OCC(O)C(O)C2O)C1OC1OCC(O)C(OC2OCC(O)C(O)C2O)C1O (some centres undefined)",
    "TGI": "49.5 µM"
  }
]

I would be grateful if you could share the reported TGI for CC(Oc1ccc(Cl)cc1Cl)C(=O)NN1C(=O)CSC1c1ccccc1 (centres undefined) .
> 100 µM

I would be grateful if you could share the reported TGI for `Cc1nn(C(=O)CC(=O)Nc2ccc(Cl)cc2)c(C)c1N=Nc1ccccc1C(=O)O` .
> 100 µM

---

Test system: RPMI-8226 leukemia
assay details: NCI tumour cell line growth inhibition, 48 h
measure name: TGI

In the examples that follow, each entry is paired with its recorded TGI.
[
  {
    "compound": "COc1ccc(/C(Cl)=C(\\C=O)c2ccc(OC)cc2)cc1",
    "TGI": "> 100 µM"
  },
  {
    "compound": "CC1C=CN(N(C)C)C2=C1C(=O)c1cnccc1C2=O (stereo not drawn)",
    "TGI": "2.65 µM"
  },
  {
    "compound": "COC(=O)NC(C(F)(F)F)(C(F)(F)F)P1(=O)OCCCO1",
    "TGI": "48.5 µM"
  },
  {
    "compound": "O=C1NI(C#Cc2ccccc2)c2ccccc21",
    "TGI": "> 100 µM"
  },
  {
    "compound": "Oc1cn(-c2ccc(Cl)cc2)nc1-c1n[nH]c(=S)n1-c1ccccc1",
    "TGI": "> 100 µM"
  }
]

API: the following record is the query input.
I would be grateful if you could share the reported TGI for `CC(=O)NNc1nc(-c2ccc([N+](=O)[O-])cc2)c(C#N)c(=O)n1C` .
> 100 µM

---

Test system: MDA-MB-435
assay details: NCI tumour cell line growth inhibition, 48 h
Where a SMILES comes first, the peptide text is derived from it. The star is where a group is joined. Boc = CC(C)(C)OC(=O)*
Measured TGI, listed per entry for reference.

In the examples that follow, each entry is paired with its recorded TGI.
[
  {
    "compound": "CC(=O)NNc1nc(-c2ccc([N+](=O)[O-])cc2)c(C#N)c(=O)n1C",
    "meas value": "> 100 µM"
  },
  {
    "compound": "COC(=O)C1=C(O)c2ccc(Cl)cc2S(=O)(=O)N1C",
    "meas value": "> 100 µM"
  },
  {
    "compound": "O=c1c2ncn(C3CCCO3)c2n(-c2ccccc2)c(=S)n1-c1ccccc1 (stereo unspecified)",
    "meas value": "> 100 µM"
  },
  {
    "compound": "CCCC(=O)N1CCN(c2ccc3c(c2)OC(C)O3)CC1 (stereo unspecified)",
    "meas value": "> 100 µM"
  },
  {
    "compound": "CC(=O)N(C)CCc1c[nH]c2ccccc12",
    "meas value": "> 100 µM"
  },
  {
    "compound": "Cn1c2ccccc2c(=O)c2cccc(C(=O)NC(CS)C(=O)O)c21 (stereo unspecified)",
    "meas value": "> 100 µM"
  },
  {
    "compound": "COC(=O)C(C)NC(=O)C(CCSC)NC(=O)C(Cc1ccccc1)NC(=O)OC(C)(C)C (stereo not drawn) (Boc-Phe-Met-Ala-OMe; configuration not given here)",
    "meas value": "> 100 µM"
  },
  {
    "compound": "CCSC1=N/C(=C\\c2ccc(N(C)C)cc2)C(Cl)=N1",
    "meas value": "> 100 µM"
  }
]

Please tell me: TGI of CC1(C)OC[C@@H]([C@H](O)C2C=CC(=O)S2)O1 (stereo partly specified) , system MDA-MB-435?
> 100 µM

Please tell me: TGI of `CN(C)CCCn1cnc2cc(Cl)c(Cl)cc21` , system MDA-MB-435?
> 100 µM

Please tell me: TGI of CC(C)=CCc1cc(O)cc2c1OC(C=C(C)C)C1=C2C(=O)C2=C(C1=O)S(=O)(=O)CCN2 (stereo unspecified) , system MDA-MB-435?
5.8 µM

Please tell me: TGI of CC1(C)OC2C(O)C(CO)OC2(C(F)F)O1 (stereo unspecified) , system MDA-MB-435?
> 100 µM

Please tell me: TGI of `NCCc1cc(O)c(O)cc1O` , system MDA-MB-435?
32.7 µM

---

Measured TGI, listed per entry for reference.
Tested on: SNB-19 CNS
assay details: NCI tumour cell line growth inhibition, 48 h

[
  {
    "molecule": "Cc1ccc(S(=O)OCc2c(C)c(C)c(COS(=O)c3ccc(C)cc3)c(C)c2C)cc1 (stereo not drawn)",
    "measure name": "TGI",
    "meas value": "> 100 µM"
  },
  {
    "molecule": "O=c1oc2c/c(=C\\c3ccc([N+](=O)[O-])cc3)c(=O)c3cccc1c3-2",
    "measure name": "TGI",
    "meas value": "> 100 µM"
  },
  {
    "molecule": "CCc1nc(N)nc(N)c1-c1ccc([N+](C)(C)C)cc1",
    "measure name": "TGI",
    "meas value": "> 100 µM"
  },
  {
    "molecule": "O=C1CCC(=O)c2c1c(O)c1ccncc1c2O",
    "measure name": "TGI",
    "meas value": "89.2 µM"
  },
  {
    "molecule": "C=CCN(C(=O)CNC(=O)C(F)(F)F)c1cc(OCc2ccccc2)c2c(c1)c(C)cn2S(=O)(=O)c1ccccc1",
    "measure name": "TGI",
    "meas value": "> 100 µM"
  },
  {
    "molecule": "C[Si](C)(C)/C(Br)=C\\CCN1C(=O)CCC1=O",
    "measure name": "TGI",
    "meas value": "> 100 µM"
  }
]

I would be grateful if you could share the reported TGI for `O=c1nc(N2CCNCC2)oc2cc(Cl)oc(=O)c12` .
36.7 µM

I would be grateful if you could share the reported TGI for CC1=C(/C=C/C(C)=C/C=C/C(C)=C/C(=O)OC2CC(n3cc(F)c(=O)[nH]c3=O)OC2CO)C(C)(C)CCC1 (stereo not drawn) .
23.6 µM

Reference source: PubChem BioAssay (NCI)
